The next entries give measured pIC50 for MMP-14 (Homo sapiens).
pIC50: −log10 of the molar value.

{"SMILES_ENTRY": "O=C(CCC(=O)NNC(=O)c1ccccc1[N+](=O)[O-])NO", "TARGET_DESC": "MMP-14 (Homo sapiens)", "pIC50": "< 5.00"}

Query: Requested read-out pIC50, target or system MMP-14 (Homo sapiens), entry O=C(CCC(=O)Nc1ccc(I)cc1)NO
Reply: 5.83

Query: Form: Entry = O=C(CCC(=O)NNC(=O)c1ccc([N+](=O)[O-])cc1)NO | System = MMP-14 (Homo sapiens) | pIC50 = ____
Reply: < 5.00

====

Test system: FetMSC
Assay: Cytotoxicity, MTT test
Format: cell-based, human
Settings: Homo sapiens; 72 h of exposure, MTT
pIC50: −log10 of the molar value.
ATTRIBUTE_MEASURED: pIC50

// worked examples, pIC50 included
{"MOLECULE": "COc1ccccc1C(=O)NNC(=O)CCC(=O)NO [Compound 5]", "pIC50": "< 3.30"}
{"MOLECULE": "O=C(CCC(=O)NNC(=O)c1ccc([N+](=O)[O-])cc1)NO [Compound 3]", "pIC50": "< 3.30"}
{"MOLECULE": "O=C(CCC(=O)NNC(=O)c1ccccc1[N+](=O)[O-])NO [Compound 1]", "pIC50": "< 3.30"}

Query: Tell me the measured pIC50 of O=C(CCC(=O)Nc1ccc(I)cc1)NO [Compound 4] , please.
Reply: < 3.30

Query: Requested read-out: pIC50. Entry: O=C(CCC(=O)NNC(=O)c1cccc([N+](=O)[O-])c1)NO [Compound 2]
Reply: < 3.30

====

Tested on: HeLa
Assay: Cytotoxicity, MTT test
Type: cell-based, human
Conditions: 72 h of exposure
ATTRIBUTE_MEASURED: IC50

Query: Lookup: IC50 / HeLa / N.N.[Cl][Pt][Cl] [Cisplatin, cisplatin]
Reply: 11.7 µM

====

Lab note: IC50 readings collected with MMP-3 (Homo sapiens, UniProt P08254) for the following compounds.
Sequence (P08254 100-272 limits assumed): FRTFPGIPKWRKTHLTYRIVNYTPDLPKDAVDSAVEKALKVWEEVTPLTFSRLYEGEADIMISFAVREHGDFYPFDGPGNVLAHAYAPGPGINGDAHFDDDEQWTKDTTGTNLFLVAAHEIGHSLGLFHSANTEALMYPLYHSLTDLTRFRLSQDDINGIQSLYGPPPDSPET

{"SMILES_ENTRY": "O=C(CCC(=O)Nc1ccc(I)cc1)NO", "TARGET_DESC": "MMP-3 (Homo sapiens, UniProt P08254)", "IC50": "> 10 µM"}

Please turn your attention to the following entry.
Query: For the compound shown here, O=C(CCC(=O)NNC(=O)c1cccc([N+](=O)[O-])c1)NO , give the reported IC50.
Reply: > 10 µM

====

Below: a set of entries, each annotated with reported IC50.
Tested on: A-172
Assay: Cytotoxicity, MTT test
Assay type: cell-based, human
Details: Homo sapiens, A 172, 72 h of exposure

Known IC50 results, listed for orientation:
{"SMILES_ENTRY": "O=C(CCC(=O)NNC(=O)c1ccccc1[N+](=O)[O-])NO", "IC50": "> 500 µM"}
{"SMILES_ENTRY": "COc1ccccc1C(=O)NNC(=O)CCC(=O)NO", "IC50": "> 500 µM"}
{"SMILES_ENTRY": "O=C(CCC(=O)NNC(=O)c1ccc([N+](=O)[O-])cc1)NO", "IC50": "> 500 µM"}
{"SMILES_ENTRY": "O=C(CCC(=O)Nc1ccc(I)cc1)NO", "IC50": "418 µM"}

Query: Consider the compound shown here: O=C(CCC(=O)NNC(=O)c1cccc([N+](=O)[O-])c1)NO What is its recorded IC50?
Reply: > 500 µM

====

Molecular target: MMP-9 (Homo sapiens)
Sequence (P14780 107-444 limits assumed): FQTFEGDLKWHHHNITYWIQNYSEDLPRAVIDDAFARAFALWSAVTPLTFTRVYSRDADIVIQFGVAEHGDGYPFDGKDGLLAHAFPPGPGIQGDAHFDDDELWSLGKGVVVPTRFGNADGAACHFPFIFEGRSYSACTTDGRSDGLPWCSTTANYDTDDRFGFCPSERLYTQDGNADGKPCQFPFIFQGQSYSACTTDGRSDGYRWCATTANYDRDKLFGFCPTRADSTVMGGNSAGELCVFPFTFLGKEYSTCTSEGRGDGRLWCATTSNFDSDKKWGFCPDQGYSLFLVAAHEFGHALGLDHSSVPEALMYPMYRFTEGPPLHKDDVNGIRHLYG
pIC50: −log10 of the molar value.
Measured pIC50, listed per entry for reference.

Example compounds with recorded pIC50:
{"COMPOUND": "O=C(CCC(=O)NNC(=O)c1cccc([N+](=O)[O-])c1)NO [Compound 2]", "pIC50": "< 5.00"}
{"COMPOUND": "O=C(CCC(=O)NNC(=O)c1ccccc1[N+](=O)[O-])NO [Compound 1]", "pIC50": "< 5.00"}
{"COMPOUND": "O=C(CCC(=O)Nc1ccc(I)cc1)NO [Compound 4]", "pIC50": 5.97}

Now take the following compound into account.
Query: Find the measured pIC50: item O=C(CCC(=O)NNC(=O)c1ccc([N+](=O)[O-])cc1)NO [Compound 3] , target or system MMP-9 (Homo sapiens).
Reply: < 5.00

====

Test system: A-172
Assay: Cytotoxicity, MTT test
Assay type: cell-based, human
Conditions: 72 h of exposure
ATTRIBUTE_MEASURED: IC50 (µM)
Value expressed in µM; do not type the unit.

Query: Look up IC50 for this molecule: N.N.[Cl][Pt][Cl] [Cisplatin, cisplatin]
Reply: 8.46
